Source of measurements: patent US5256668A

Record form. Attribute: MCC. Fill in for each entry.
test: Cellular toxicity, minimal toxic dose that inhibits all growth, A549; format: cell-based; details: human, a549 cells

- compound: "Cc1nc(=O)c(Br)c(NCc2cncc(C#N)c2)[nH]1 [Compound 2]"
  endpoint.value: "> 50 µg/mL"

Lab note: next compound to report on.
Incoming: What does the record list as MCC for Cc1nc(=O)c(C#N)c(NCCc2cccnc2)[nH]1 [Compound 1] ?
Outgoing: > 100 µg/mL

----------
experiment: Cellular toxicity, minimal toxic dose that inhibits all growth, MRC-5; format: cell-based; conditions: human, mrc-5 cells
measured.quantity: MCC

- chemical.structure: "Cc1nc(=O)c(Br)c(NCc2cncc(C#N)c2)[nH]1"
  MCC: "> 50 µg/mL"

Incoming: Requested field: MCC. Item: Cc1nc(=O)c(C#N)c(NCCc2cccnc2)[nH]1
Outgoing: 100 µg/mL
